# measurement.notes: self-splicing fitness, log relative to wild type (ln ratio); higher = more splicing; Tetrahymena group I intron in knt gene, E. coli kanamycin selection, DiMSum; sequences stand for … in CUCUCU…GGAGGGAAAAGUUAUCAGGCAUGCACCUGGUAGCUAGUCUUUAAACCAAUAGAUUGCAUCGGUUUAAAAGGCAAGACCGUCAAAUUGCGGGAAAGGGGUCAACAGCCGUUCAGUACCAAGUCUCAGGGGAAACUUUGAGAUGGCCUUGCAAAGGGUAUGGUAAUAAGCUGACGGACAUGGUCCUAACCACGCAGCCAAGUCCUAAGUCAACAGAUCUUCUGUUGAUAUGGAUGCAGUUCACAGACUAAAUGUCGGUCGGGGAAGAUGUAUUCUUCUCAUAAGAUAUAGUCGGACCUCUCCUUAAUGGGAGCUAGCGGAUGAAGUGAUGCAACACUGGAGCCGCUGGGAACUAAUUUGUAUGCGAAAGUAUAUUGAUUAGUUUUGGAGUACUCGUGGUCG;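 note: selection with 25 µg/mL kanamycin versus none on LB agar overnight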
# run.parameters: 30 °C
quantity.measured: self-splicing fitness (ln)

input.sequence	quantity.measured	value.reported
GUUGAGCAAUAUUACGUUGC	self-splicing fitness (ln)	-2.03
AUAUAGCAAUAUUACGAGUA	self-splicing fitness (ln)	-2.18
UGCUAGCAAUAUUACGGGCC	self-splicing fitness (ln)	-1.55
GGCAAGCAAUAUUACGCCGA	self-splicing fitness (ln)	-2.14
GGCUAGCAAUAUUACGCACA	self-splicing fitness (ln)	-0.263
CCACAGCAAUAUUACGCAGC	self-splicing fitness (ln)	-3.88
CAAAAGCAAUAUUACGGCAU	self-splicing fitness (ln)	-1.85
CAUGAGCAAUAUUACGCUCU	self-splicing fitness (ln)	-3.71
UUAGAGCAAUAUUACGCUAU	self-splicing fitness (ln)	-2.27
AUAUAGCAAUAUUACGACUG	self-splicing fitness (ln)	-1.47
UAGCAGCAAUAUUACGUUAG	self-splicing fitness (ln)	-3.08
GAUAAGCAAUAUUACGUCCG	self-splicing fitness (ln)	-4.76
ACCGAGCAAUAUUACGAAUA	self-splicing fitness (ln)	-3.02
CAGUAGCAAUAUUACGCCCG	self-splicing fitness (ln)	0.504
UUAAAGCAAUAUUACGUACC	self-splicing fitness (ln)	-1.73
UCAUAGCAAUAUUACGGAAC	self-splicing fitness (ln)	-4.02
GUGUAGCAAUAUUACGAUCG	self-splicing fitness (ln)	-1.94
CUGCAGCAAUAUUACGUCAG	self-splicing fitness (ln)	-3.61
GCCCAGCAAUAUUACGUUGC	self-splicing fitness (ln)	-1.11
CUGUAGCAAUAUUACGUUGG	self-splicing fitness (ln)	-3.56
CCAUAGCAAUAUUACGACGA	self-splicing fitness (ln)	-3.14
CCAUAGCAAUAUUACGACCU	self-splicing fitness (ln)	-2.92
UCAAAGCAAUAUUACGACUG	self-splicing fitness (ln)	-0.4
AACCAGCAAUAUUACGGUAU	self-splicing fitness (ln)	-2
AAUUAGCAAUAUUACGGCAA	self-splicing fitness (ln)	-0.926
GCCGAGCAAUAUUACGCGGA	self-splicing fitness (ln)	-1.04
CCACAGCAAUAUUACGAGCA	self-splicing fitness (ln)	-3.6
GUACAGCAAUAUUACGAUAC	self-splicing fitness (ln)	-2.35
CGUAAGCAAUAUUACGACCA	self-splicing fitness (ln)	-2.11
AGCGAGCAAUAUUACGCACG	self-splicing fitness (ln)	-3.64
CGCGAGCAAUAUUACGGGGU	self-splicing fitness (ln)	-4.28
CGUGAGCAAUAUUACGGCUU	self-splicing fitness (ln)	-3.31
CACCAGCAAUAUUACGCUGG	self-splicing fitness (ln)	-5.21
CUGCAGCAAUAUUACGGGUU	self-splicing fitness (ln)	-3.86
GCUUAGCAAUAUUACGACCG	self-splicing fitness (ln)	-1.2
GUGCAGCAAUAUUACGAUAC	self-splicing fitness (ln)	-1.58
AUAUAGCAAUAUUACGCAAG	self-splicing fitness (ln)	-2.34
GGUAAGCAAUAUUACGUCGC	self-splicing fitness (ln)	-1.17
UUCGAGCAAUAUUACGUCUG	self-splicing fitness (ln)	-2.57
UGCAAGCAAUAUUACGGGUU	self-splicing fitness (ln)	-2.62
GGACAGCAAUAUUACGACGA	self-splicing fitness (ln)	-1.77
AAGCAGCAAUAUUACGUGCC	self-splicing fitness (ln)	-1.23
UCCUAGCAAUAUUACGAACU	self-splicing fitness (ln)	-2.54
GACAAGCAAUAUUACGGAGC	self-splicing fitness (ln)	-2.2
CCUGAGCAAUAUUACGCUUU	self-splicing fitness (ln)	-1.94
UCCAAGCAAUAUUACGCGCA	self-splicing fitness (ln)	0.131
AUUGAGCAAUAUUACGGUAG	self-splicing fitness (ln)	-3.32
CGGAAGCAAUAUUACGUCUU	self-splicing fitness (ln)	-1.67
UUAAAGCAAUAUUACGAUGG	self-splicing fitness (ln)	0.00244
UAGUAGCAAUAUUACGUCGG	self-splicing fitness (ln)	-2.04
GGUUAGCAAUAUUACGUUCU	self-splicing fitness (ln)	-0.833
GCUGAGCAAUAUUACGUGCG	self-splicing fitness (ln)	-1.62
UGGCAGCAAUAUUACGAAAU	self-splicing fitness (ln)	-3.14
UCAAAGCAAUAUUACGCUAC	self-splicing fitness (ln)	-2.96
UAGUAGCAAUAUUACGUACU	self-splicing fitness (ln)	-0.816
UAUGAGCAAUAUUACGAGAA	self-splicing fitness (ln)	-2.28
CACAAGCAAUAUUACGACGC	self-splicing fitness (ln)	-2.86
GAUCAGCAAUAUUACGAGUG	self-splicing fitness (ln)	-1.2
AGCUAGCAAUAUUACGGUCC	self-splicing fitness (ln)	-0.52
AAACAGCAAUAUUACGAGUG	self-splicing fitness (ln)	-2.71
UACGAGCAAUAUUACGCAUG	self-splicing fitness (ln)	-2.37
GAGGAGCAAUAUUACGGGUU	self-splicing fitness (ln)	-1.74
CCUCAGCAAUAUUACGGAGA	self-splicing fitness (ln)	-2.8
CGCAAGCAAUAUUACGAAGC	self-splicing fitness (ln)	-2.55
UCGAAGCAAUAUUACGUAAG	self-splicing fitness (ln)	-1.85
GCGCAGCAAUAUUACGGGAC	self-splicing fitness (ln)	-2.13
CACCAGCAAUAUUACGGCCA	self-splicing fitness (ln)	-0.747

---

# measurement.notes: self-splicing fitness, log relative to wild type (ln ratio); higher = more splicing; Tetrahymena group I intron in knt gene, E. coli kanamycin selection, DiMSum; sequences stand for … in CUCUCU…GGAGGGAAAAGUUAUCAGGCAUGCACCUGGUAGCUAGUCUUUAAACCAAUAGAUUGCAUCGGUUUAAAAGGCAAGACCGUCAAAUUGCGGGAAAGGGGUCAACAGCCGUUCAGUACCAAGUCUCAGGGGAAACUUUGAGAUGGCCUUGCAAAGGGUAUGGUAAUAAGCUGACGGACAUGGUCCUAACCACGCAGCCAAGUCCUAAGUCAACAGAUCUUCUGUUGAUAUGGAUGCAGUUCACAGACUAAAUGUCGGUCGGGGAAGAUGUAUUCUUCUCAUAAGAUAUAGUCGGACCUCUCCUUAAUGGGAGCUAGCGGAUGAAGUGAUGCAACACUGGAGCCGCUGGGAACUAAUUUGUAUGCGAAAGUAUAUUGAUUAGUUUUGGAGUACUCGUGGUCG
# run.parameters: 37 °C
quantity.measured: self-splicing fitness (ln)

input.sequence	value.reported
GCCGAGCAAUAUUACGUUGA	-2.88
ACUGAGCAAUAUUACGAAUA	-2.65
AAGAAGCAAUAUUACGUGAU	-2.09
GGCGAGCAAUAUUACGGCGC	-2.52
AGGGAGCAAUAUUACGAUUG	-3.41
UAGGAGCAAUAUUACGGACU	-2.41
UAAGAGCAAUAUUACGCUUU	-1.85
CCACAGCAAUAUUACGGCAC	-2.87
GUGGAGCAAUAUUACGCUAA	-1.6
AACGAGCAAUAUUACGGAUA	-1.85
AAUUAGCAAUAUUACGGGCG	-1.36
UUAGAGCAAUAUUACGGGUA	-1.62
UACAAGCAAUAUUACGUUAC	-2.84
AUACAGCAAUAUUACGUUUA	-1.07
GUAUAGCAAUAUUACGUAGU	-1.26
CCUGAGCAAUAUUACGGGAC	-2.08

---

# measurement.notes: self-splicing fitness, log relative to wild type (ln ratio); higher = more splicing; Tetrahymena group I intron in knt gene, E. coli kanamycin selection, DiMSum; sequences stand for … in CUCUCU…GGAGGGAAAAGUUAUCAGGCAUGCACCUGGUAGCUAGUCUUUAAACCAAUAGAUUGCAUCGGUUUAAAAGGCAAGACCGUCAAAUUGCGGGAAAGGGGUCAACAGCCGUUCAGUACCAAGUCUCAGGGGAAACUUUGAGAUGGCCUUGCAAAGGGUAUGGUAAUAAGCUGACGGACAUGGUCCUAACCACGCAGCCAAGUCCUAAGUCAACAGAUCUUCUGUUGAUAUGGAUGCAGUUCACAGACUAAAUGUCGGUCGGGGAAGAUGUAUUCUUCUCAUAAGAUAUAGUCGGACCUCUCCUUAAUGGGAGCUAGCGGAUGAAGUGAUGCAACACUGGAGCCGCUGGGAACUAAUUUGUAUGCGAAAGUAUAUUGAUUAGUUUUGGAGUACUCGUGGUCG
# run.parameters: 37 °C
self-splicing fitness (ln) vs -2: at or above is fulfilled, below is not fulfilled.

input.sequence	cat
CGAUAGCAAUAUUACGCAGU	not fulfilled
GCCGAGCAAUAUUACGAUCA	fulfilled
GUCUAGCAAUAUUACGCACA	fulfilled
CAGGAGCAAUAUUACGUUAC	not fulfilled
GAGAAGCAAUAUUACGUUGG	not fulfilled
GAGAAGCAAUAUUACGAAAG	fulfilled
UACUAGCAAUAUUACGUUAC	not fulfilled
UAUUAGCAAUAUUACGAUGA	fulfilled
